Examples of binders with documented specificity ELISA, percent binding relative to Acro S1 follow.
Subject Of Test: COVID S1 RBD Fc fusion (Antigen 1) (SARS-CoV-2), P0DTC2
Method Notes: phage ELISA
Conditions Used: remark: other sources report otherwise
Measurement Name: specificity ELISA, percent binding relative to Acro S1

INSERT INTO results (binder, endpoint_result) VALUES
  ('SARS-CoV-2 variant 1-4 (antibody, V domains shown) VH: EVQLLESGGGLVQPGGSLRLSCAASGFTFSSQAMSWVRQAPGKGLEWVSAISGSGGGTYYADSVKGRFTISRDNSKNTLYLQMNSLRAEDTAVYYCAKDRRFGEFDPWGQGTLVTVSS VL: QSALTQPASVSGSPGQSITISCTGTSSDVGTYNLVSWYQQHPGKAPKLMIYEGSQRPSGVSNRFSGSKSGNTASLTISGLQAEDEADYYCCSYAGSSSFVVFGGGTKLTVL', '138%'),
  ('SARS-CoV-2 variant 1-5 (antibody, V domains shown) VH: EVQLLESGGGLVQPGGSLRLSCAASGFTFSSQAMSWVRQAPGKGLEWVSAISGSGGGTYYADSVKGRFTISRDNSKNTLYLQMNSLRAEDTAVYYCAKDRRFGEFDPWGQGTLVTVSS VL: QSALTQPASVSGSPGQSITISCTGTSSGVGSYNLVSWYQQHPGKAPKLMIYEASKRPSGVSNRFSGSKSGNTASLTISGLQAEDEADYYCCSYAGSYTFAVFGGGTKLTVL', '108%');
